Tested on: FMOC22 (patient-derived mucinous ovarian cancer cells)
assay.explanation: drug sensitivity score (DSS3, normalised partial AUC of % inhibition dose-response) (DSS (score)); higher = more sensitive (stronger inhibition of viability); extreme values may be limits of the assay
conditions.used: 72 h; library: FO5A; assay format: 2D, 384-well, CellTiter-Glo
Attribute: drug sensitivity score
Just the number, please, no unit after it.

Illustrative cases are given below, each with its answer.
Looking for the measured drug sensitivity score of "Cn1ncc(Cl)c1-c1cc(C(=O)N[C@H](CN)Cc2cccc(F)c2)sc1Cl" , can you help? 0

Looking for the measured drug sensitivity score of "CN(C)CC#Cc1ccc(OCCCc2sc(N3CCc4cccc(C(=O)Nc5nc6ccccc6s5)c4C3)nc2C(=O)O)c(F)c1" , can you help? 13.5

Looking for the measured drug sensitivity score of "CCOC(=O)CCNc1cc(N2CCc3ccccc3CC2)nc(-c2ccccn2)n1" , can you help? 4.3

Others:
Looking for the measured drug sensitivity score of "Nc1ncnc2c1c(COc1cccc(Cl)c1)nn2C1CCOCC1" , can you help? 0

Looking for the measured drug sensitivity score of "Cc1nc(Nc2ncc(C(=O)Nc3c(C)cccc3Cl)s2)cc(N2CCN(CCO)CC2)n1" , can you help? 0

Looking for the measured drug sensitivity score of "O=C(Nc1cccnc1)N1CCC(Cc2cccc(Oc3ccc(C(F)(F)F)cn3)c2)CC1" , can you help? 1.5

Looking for the measured drug sensitivity score of CN(Cc1cnc2nc(N)nc(N)c2n1)c1ccc(C(=O)N[C@@H](CCC(=O)O)C(=O)O)cc1 [Methotrexate] , can you help? 0

----------
System: FMOC25_2 (patient-derived low-grade serous ovarian cancer cells)
assay.explanation: drug sensitivity score (DSS3, normalised partial AUC of % inhibition dose-response) (DSS (score)); higher = more sensitive (stronger inhibition of viability); extreme values may be limits of the assay
conditions.used: 72 h; library: FO5A; assay format: 2D, 384-well, CellTiter-Glo
Where drug sensitivity score equals or exceeds 0.7, the correct label is yes (1); where it does not, the label is no (0).

As a guide, the following entries are already answered.
State whether the measured drug sensitivity score reaches 0.7, counting equality as reaching it, for C=CCN(/C=C1/C(=O)O[C@H](COC)[C@@]2(C)C1=C(O)C(=O)C1=C2[C@H](OC(C)=O)C[C@]2(C)C(=O)CC[C@@H]12)CC=C [Sonolisib] no (0)

State whether the measured drug sensitivity score reaches 0.7, counting equality as reaching it, for "Cc1c(-c2c(-c3ccc(F)o3)sc3ncnc(O[C@H](Cc4ccccc4OCc4ccnn4CC(F)(F)F)C(=O)O)c23)ccc(OCCN2CCN(C)CC2)c1Cl" no (0)

Others:
State whether the measured drug sensitivity score reaches 0.7, counting equality as reaching it, for Oc1ncnc2[nH]ncc12 [Allopurinol] no (0)

State whether the measured drug sensitivity score reaches 0.7, counting equality as reaching it, for CC(C)C[C@H](NC(=O)[C@H](Cc1ccccc1)NC(=O)c1cnccn1)B(O)O [Bortezomib] yes (1)

State whether the measured drug sensitivity score reaches 0.7, counting equality as reaching it, for NS(=O)(=O)OC[C@@H]1C[C@@H](n2ccc3c(N[C@H]4CCc5ccccc54)ncnc32)C[C@@H]1O [Pevonedistat] yes (1)

State whether the measured drug sensitivity score reaches 0.7, counting equality as reaching it, for CC[C@H](CO)Nc1nc(NCc2ccccc2)c2ncn(C(C)C)c2n1 [Seliciclib] yes (1)

----------
System: FMOC02_2 (patient-derived low-grade serous ovarian cancer cells)
assay.explanation: drug sensitivity score (DSS3, normalised partial AUC of % inhibition dose-response) (DSS (score)); higher = more sensitive (stronger inhibition of viability); extreme values may be limits of the assay
conditions.used: 72 h; library: FO5A; assay format: 2D, 384-well, CellTiter-Glo
value.type: drug sensitivity score
Just the number, please, no unit after it.

Looking for the measured drug sensitivity score of "CN1CCN(C2CCN(C(=O)Nc3cc(Oc4ccc(NC(=O)C5(C(=O)Nc6ccc(F)cc6)CC5)c(F)c4)ccn3)CC2)CC1" , can you help? 1.2

Looking for the measured drug sensitivity score of "c1cn2cc(-c3ccc4cn[nH]c4c3)nc(Nc3ccc(N4CCOCC4)cc3)c2n1" , can you help? 3.2

Looking for the measured drug sensitivity score of "O=C(Nc1cc(Oc2cc(F)c(NC(=O)C3(C(=O)Nc4ccc(F)cc4)CC3)cc2F)ccn1)C1CC1" , can you help? 5.2

Then there is this compound:
Looking for the measured drug sensitivity score of "CCOC(=O)C1=CCCC[C@H]1S(=O)(=O)Nc1ccc(F)cc1Cl" , can you help? 0

----------
Test system: FMOC09 (patient-derived high-grade serous ovarian cancer cells)
assay.explanation: drug sensitivity score (DSS3, normalised partial AUC of % inhibition dose-response) (DSS (score)); higher = more sensitive (stronger inhibition of viability); extreme values may be limits of the assay
conditions.used: 72 h; library: FO5A; assay format: 2D, 384-well, CellTiter-Glo
Where drug sensitivity score equals or exceeds 6, the correct label is class 1; where it does not, the label is class 0.

As a guide, the following entries are already answered.
State whether the measured drug sensitivity score reaches 6, counting equality as reaching it, for CCCCNc1ncc(C(=O)NCc2ccc(-n3ccnc3)cc2)c(NC2CCC(O)CC2)n1 (stereo not given) [UNC2881] class 0

State whether the measured drug sensitivity score reaches 6, counting equality as reaching it, for CC(=O)N(O)CCCCCNC(=O)CCC(=O)N(O)CCCCCNC(=O)CCC(=O)N(O)CCCCCN [Deferoxamine] class 0

State whether the measured drug sensitivity score reaches 6, counting equality as reaching it, for COCCNCc1ccc(-c2cc3nccc(Oc4ccc(NC(=O)C5(C(=O)Nc6ccc(F)cc6)CC5)cc4F)c3s2)nc1 [Sitravatinib] class 0

State whether the measured drug sensitivity score reaches 6, counting equality as reaching it, for CN[C@@H](C)C(=O)N[C@H]1CN(C(=O)CC(C)C)CC[C@H]2CC[C@@H](C(=O)NC(c3ccccc3)c3ccccc3)N2C1=O [AT-406] class 0

State whether the measured drug sensitivity score reaches 6, counting equality as reaching it, for Cc1ccc(NS(=O)(=O)c2cccc(C#N)c2)c2[nH]cc(C#N)c12 [E7820] class 1

Others:
State whether the measured drug sensitivity score reaches 6, counting equality as reaching it, for O=C(NC1CCNCC1)c1n[nH]cc1NC(=O)c1c(Cl)cccc1Cl [AT7519] class 1

State whether the measured drug sensitivity score reaches 6, counting equality as reaching it, for CC(C)[C@H]1C(=O)N[C@@H](CCCNC(=N)N)C(=O)NCC(=O)N[C@@H](CC(=O)O)C(=O)N[C@H](Cc2ccccc2)C(=O)N1C [Cilengitide] class 0

State whether the measured drug sensitivity score reaches 6, counting equality as reaching it, for COc1cccc(OCCCN)c1-c1cc(Nc2cnc(C#N)cn2)n[nH]1 [Prexasertib] class 1

State whether the measured drug sensitivity score reaches 6, counting equality as reaching it, for Nc1ccccc1NC(=O)c1ccc(CNC(=O)OCc2cccnc2)cc1 [Entinostat] class 0

State whether the measured drug sensitivity score reaches 6, counting equality as reaching it, for N#Cc1ccc2[nH]c(O)c(-c3ccc(CN4CCOCC4)cn3)c2c1 [AZD-1080] class 0

State whether the measured drug sensitivity score reaches 6, counting equality as reaching it, for CN1CCN(CCOc2cc(OC3CCOCC3)c3c(Nc4c(Cl)ccc5c4OCO5)ncnc3c2)CC1 [Saracatinib] class 1

State whether the measured drug sensitivity score reaches 6, counting equality as reaching it, for C/C=C1\NC(=O)[C@H]2CSSCC/C=C/[C@H](CC(=O)N[C@H](C(C)C)C(=O)N2)OC(=O)[C@H](C(C)C)NC1=O [Romidepsin] class 1

State whether the measured drug sensitivity score reaches 6, counting equality as reaching it, for Cn1nccc1Nc1nccc(-c2ccn([C@H](CO)c3ccc(Cl)c(F)c3)c(=O)c2)n1 [Ravoxertinib] class 0

State whether the measured drug sensitivity score reaches 6, counting equality as reaching it, for COc1cc([C@@H]2c3cc4c(cc3[C@@H](O[C@@H]3O[C@@H]5CO[C@@H](C)O[C@H]5[C@H](O)[C@H]3O)[C@H]3COC(=O)[C@H]23)OCO4)cc(OC)c1O [Etoposide] class 0

----------
Tested on: FMOC25_2
assay.explanation: drug sensitivity score (DSS3, normalised partial AUC of % inhibition dose-response) (DSS (score)); higher = more sensitive (stronger inhibition of viability); extreme values may be limits of the assay
conditions.used: 72 h; library: FO5A; assay format: 2D, 384-well, CellTiter-Glo
value.type: drug sensitivity score
Just the number, please, no unit after it.

Looking for the measured drug sensitivity score of Cc1nc(-c2cn3c(n2)-c2ccc(-c4cnn(C(C)(C)C(N)=O)c4)cc2OCC3)n(C(C)C)n1 [Taselisib] , can you help? 8.6

Others:
Looking for the measured drug sensitivity score of CN(C)C(=N)NC(=N)N [Metformin] , can you help? 0

Looking for the measured drug sensitivity score of Cc1cn(-c2cc(NC(=O)c3ccc(C)c(Nc4nccc(-c5cnccn5)n4)c3)cc(C(F)(F)F)c2)cn1 [Radotinib] , can you help? 0.2

Looking for the measured drug sensitivity score of Cc1sc2c(c1C)C(c1ccc(Cl)cc1)=N[C@@H](CC(=O)Nc1ccc(OCCOCCOCCOCCNc3cccc4c3C(=O)N(C3CCC(=O)NC3=O)C4=O)cc1)c1nnc(C)n1-2 (some centres undefined) [ARV-825] , can you help? 17.1

Looking for the measured drug sensitivity score of COc1cc2c(NC3CCN(C(C)C)CC3)nc(N3CCC(F)(F)CC3)nc2cc1OCCCN1CCCC1 [UNC0642] , can you help? 0.7

Looking for the measured drug sensitivity score of CNC(=O)c1ccc(N2C(=S)N(c3ccc(C#N)c(C(F)(F)F)c3)C(=O)C2(C)C)cc1F [Enzalutamide] , can you help? 0

Looking for the measured drug sensitivity score of O=C(Nc1cc(Oc2cc(F)c(NC(=O)C3(C(=O)Nc4ccc(F)cc4)CC3)cc2F)ccn1)C1CC1 [Altiratinib] , can you help? 9.1

Looking for the measured drug sensitivity score of COc1cc2ncnc(Nc3cccc(Cl)c3F)c2cc1OC(=O)N1CCN(C)C[C@H]1C [AZD3759] , can you help? 4.2

Looking for the measured drug sensitivity score of FC(F)c1nc2ccccc2n1-c1nc(N2CCOCC2)nc(N2CCOCC2)n1 [ZSTK474] , can you help? 16.8
